test system: primary human hepatic stellate cells (donor 1); assay: scaled lipid accumulation score (0 = DMSO-like, 1 = nortriptyline-like); higher = stronger HSC inactivation (lipid re-accumulation), active = hit call of the paper; details: library stock concentration: 10 mM; 48 h
Structures can show the parent of a compound that is named as a salt. Screen size: about 5,800 compounds; about 620 (11%) showed activity.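 How the source made its calls: active = score above a cut-off or among the top three wells of a plate; in these data no inactive exceeds 0.85.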 What follows is part of a selection rich in actives, with near analogues and random picks from the rest.
Select the matching outcome among Y = active, N = inactive

[
  {
    "Molecule": "CC(=O)OCC(=O)[C@@]1(O)CC[C@H]2[C@@H]3C[C@H](C)C4=CC(=O)C=C[C@]4(C)[C@H]3[C@@H](O)C[C@@]21C",
    "Test system": "primary human hepatic stellate cells (donor 1)",
    "Assigned class": "N"
  },
  {
    "Molecule": "C[C@]12CC[C@@H]3c4ccc(O)cc4CC[C@H]3[C@@H]1C[C@H](O)[C@@H]2O",
    "Test system": "primary human hepatic stellate cells (donor 1)",
    "Assigned class": "N"
  },
  {
    "Molecule": "COC(=O)/C=C/c1cc(O)ccc1O [Methyl 2,5-dihydroxycinnamate]",
    "Test system": "primary human hepatic stellate cells (donor 1)",
    "Assigned class": "N"
  },
  {
    "Molecule": "N=C(N)NC(=O)c1nc(Cl)c(N)nc1N [Amiloride HCl]",
    "Test system": "primary human hepatic stellate cells (donor 1)",
    "Assigned class": "N"
  },
  {
    "Molecule": "O=C(NCCCCCCNC(=O)ON=C1CCCCC1)ON=C1CCCCC1",
    "Test system": "primary human hepatic stellate cells (donor 1)",
    "Assigned class": "N"
  },
  {
    "Molecule": "COC(=O)C(C)(N)Cc1ccc(O)cc1 (racemic) [alpha-Methyl-DL-tyrosine methyl ester hydrochloride]",
    "Test system": "primary human hepatic stellate cells (donor 1)",
    "Assigned class": "N"
  }
]

Challenge: # fetch the recorded call for CN1CC2c3ccccc3Oc3ccc(Cl)cc3C2C1 (centres undefined) [Asenapine maleate] here
Response given: N
